assay: Intrinsic clearance in human liver microsomes at 1 uM measured for 30 mins in presence of NADPH by LC-MS/MS analysis; assay type: ADME, Microsome; settings: read-out: CLH
readout: microsomal CLint at 1 µM (µL/min/mg)
The response must be a number in µL/min/mg with no trailing unit.

Request: Determine from records and report microsomal CLint at 1 µM for C=CC(=O)N1Cc2nc(-c3ccc(F)c(Oc4cccc(F)n4)c3)n(-c3ccncc3)c2C1
Result: 9.5

====

test: Ratio of unbound drug concentration in brain to plasma of Han Wistar rat at 2 umol/kg/hr incubated for 4 hrs by LC-MS/MS analysis; assay type: ADME; conditions: iv, read-out: K(p,uu,brain)
readout: Kp uu at 4 h
Could you respond with only the numeric value?

Request: Identify measured Kp uu at 4 h corresponding to C=CC(=O)N1Cc2nc(-c3ccc(F)c(Oc4cccc(F)n4)c3)n(-c3ccncc3)c2C1
Result: 0.054

====

target: Epidermal growth factor receptor (Homo sapiens); assay: Inhibition of wild-type EGFR (unknown origin) expressed in human NCI-H2073 cells preincubated for 2 hrs followed by EGF stimulation for 10 mins by HTRF assay; type: cell-based
Sequence (P00533 whole entry): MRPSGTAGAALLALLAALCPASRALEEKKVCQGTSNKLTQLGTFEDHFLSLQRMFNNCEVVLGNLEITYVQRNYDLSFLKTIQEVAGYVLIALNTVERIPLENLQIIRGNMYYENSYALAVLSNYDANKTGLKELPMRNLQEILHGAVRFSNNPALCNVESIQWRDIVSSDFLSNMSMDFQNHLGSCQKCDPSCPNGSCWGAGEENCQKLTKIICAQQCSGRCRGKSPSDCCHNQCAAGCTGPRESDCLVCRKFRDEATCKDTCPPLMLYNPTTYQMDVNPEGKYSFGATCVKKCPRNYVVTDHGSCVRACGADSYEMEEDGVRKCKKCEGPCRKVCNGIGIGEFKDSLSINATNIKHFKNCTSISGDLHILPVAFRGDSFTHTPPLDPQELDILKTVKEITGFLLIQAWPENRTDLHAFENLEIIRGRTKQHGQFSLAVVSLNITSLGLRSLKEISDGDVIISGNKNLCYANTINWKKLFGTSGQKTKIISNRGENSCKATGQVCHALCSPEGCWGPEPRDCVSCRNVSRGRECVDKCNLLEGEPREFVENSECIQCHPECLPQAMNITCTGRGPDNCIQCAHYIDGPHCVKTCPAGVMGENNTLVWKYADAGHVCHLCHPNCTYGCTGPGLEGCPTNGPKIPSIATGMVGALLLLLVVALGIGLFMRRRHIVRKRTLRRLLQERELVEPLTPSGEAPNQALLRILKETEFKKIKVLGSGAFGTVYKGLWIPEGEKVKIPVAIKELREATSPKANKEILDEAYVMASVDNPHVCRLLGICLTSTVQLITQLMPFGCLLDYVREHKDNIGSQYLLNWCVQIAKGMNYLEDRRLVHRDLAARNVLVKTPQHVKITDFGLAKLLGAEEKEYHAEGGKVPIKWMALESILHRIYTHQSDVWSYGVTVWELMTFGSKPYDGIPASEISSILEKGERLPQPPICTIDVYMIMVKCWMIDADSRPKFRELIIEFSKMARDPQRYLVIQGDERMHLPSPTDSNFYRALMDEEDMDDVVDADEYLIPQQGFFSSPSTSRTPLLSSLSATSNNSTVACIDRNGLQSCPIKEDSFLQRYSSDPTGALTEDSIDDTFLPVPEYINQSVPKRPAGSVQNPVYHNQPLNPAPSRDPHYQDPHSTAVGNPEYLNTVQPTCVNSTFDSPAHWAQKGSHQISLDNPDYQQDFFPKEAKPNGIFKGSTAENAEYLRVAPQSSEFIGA
This section presents compounds with their documented IC50 values.

Request: Note down IC50 recorded for C=CC(=O)N1Cc2nc(-c3cc(Oc4nc(F)ccc4F)ccc3F)n(-c3cc(=O)[nH]cn3)c2C1
Result: > 31.6 µM

Request: Provide IC50 value for the following compound: C=CC(=O)N1Cc2nc(-c3cc(Oc4nc(F)ccc4F)ccc3F)n(-c3cc[nH]c(=O)n3)c2C1
Result: > 31.6 µM

Origin of values: ChEMBL document CHEMBL6121053
